This section presents molecules with their documented IC50 values.
Molecular target: E6 WT/E6AP (Human papillomavirus type 16, UniProt P03126)
Sequence (P03126 8-158): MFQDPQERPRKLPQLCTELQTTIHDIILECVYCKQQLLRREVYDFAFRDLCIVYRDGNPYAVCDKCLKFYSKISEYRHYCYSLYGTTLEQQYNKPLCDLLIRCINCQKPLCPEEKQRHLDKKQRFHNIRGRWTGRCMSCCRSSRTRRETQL
Test: biochemical
Type: binding
Conditions: FP IC50 at 24 h (μM) E6 WT/E6AP
Endpoint name: IC50

> print(dat)
                                   molecule  endpoint.name  recorded.value
1  C=CC(=O)N1CCN(C(=O)CN2CCc3ccccc3C2c2ccccc2C)CC1 (centres unmarked)           IC50         73.4 µM
2  C=CC(=O)N1CCN(c2nc(CCc3ccc(F)cc3)nc3sc4c(c23)CCCC4)CC1           IC50           12 µM
3  C=CC(=O)N1CCN(c2nc(-c3cccc(OC)c3)nc3ccccc23)CC1           IC50         14.5 µM
4  C=CC(=O)N1CCN(c2nc(-c3ccc(OC4CC4)cc3)nc3ccccc23)CC1           IC50         41.6 µM
5  C=CC(=O)N1CCN(c2nc(Cc3ccccc3)nc3sc4c(c23)CCCC4)CC1           IC50         15.4 µM

====

Biological target: E6C51S/E6AP (Human papillomavirus type 16, UniProt P03126, C58S)
Sequence (P03126 whole entry C58S, looked up): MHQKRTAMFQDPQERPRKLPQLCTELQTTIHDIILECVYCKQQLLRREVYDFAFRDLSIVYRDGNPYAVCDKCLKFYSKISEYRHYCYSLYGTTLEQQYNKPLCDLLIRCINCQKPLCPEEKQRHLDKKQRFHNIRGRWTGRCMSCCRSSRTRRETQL
Experiment: E6/E6AP binding assay (amylose-bound MBP-16E6, E6AP-BAP activity), C51S 16E6
Set-up: species or system HPV-16
Conditions: 10 μM compound
This section presents molecules with their documented % Inhibition @ 10 μM E6C51S/E6AP values.
Endpoint name: % Inhibition @ 10 μM E6C51S/E6AP (%)

> print(dat)
                                    molecule                     endpoint.name  units.symbol  recorded.value
 1  CCCCc1nc(N2CCN(C(=O)CCl)CC2)c2c3c(sc2n1)CC(C)CC3 (centres unmarked)  % Inhibition @ 10 μM E6C51S/E6AP             %              49
 2  C=CC(=O)N1CCN(c2nc(CCc3ccccc3OC)nc3sc4c(c23)CCCC4)CC1  % Inhibition @ 10 μM E6C51S/E6AP             %              20
 3  C=CC(=O)N1CCN(c2nc(CCc3ccccc3)nc3sc4c(c23)CCCC4)CC1  % Inhibition @ 10 μM E6C51S/E6AP             %               0
 4  C=CC(=O)N1CCN(c2nc(CCc3cccc(F)c3)nc3sc4c(c23)CCCC4)CC1  % Inhibition @ 10 μM E6C51S/E6AP             %              15
 5  CCCc1nc(N2CCN(C(=O)CCl)CC2)c2c3c(sc2n1)CC(C)CC3 (centres unmarked)  % Inhibition @ 10 μM E6C51S/E6AP             %              52
 6  Cc1nc(N2CCN(C(=O)CCl)CC2)c2c3c(sc2n1)CCCC3  % Inhibition @ 10 μM E6C51S/E6AP             %              44
 7  O=C(CCl)N1CCN(c2nc(CCc3ccccc3)nc3sc4c(c23)CCCC4)CC1  % Inhibition @ 10 μM E6C51S/E6AP             %              32
 8  C=CC(=O)N1CCN(c2nc(CCc3ccc(OC)cc3)nc3sc4c(c23)CCCC4)CC1  % Inhibition @ 10 μM E6C51S/E6AP             %               9
 9  C=CC(=O)N1CCN(c2nc(N(C)Cc3cccc(F)c3)nc3sc4c(c23)CCCC4)CC1  % Inhibition @ 10 μM E6C51S/E6AP             %               0
10  C=CC(=O)N1CCN(c2nc(NCc3ccccc3)nc3sc4c(c23)CCCC4)CC1  % Inhibition @ 10 μM E6C51S/E6AP             %               0
11  Cc1ccccc1C1c2ccsc2CCN1CC(=O)N1CCCN(C(=O)CCl)CC1 (centres unmarked)  % Inhibition @ 10 μM E6C51S/E6AP             %               5
12  C=CC(=O)N1CCN(c2nc(Cc3ccc(F)cc3)nc3sc4c(c23)CCCC4)CC1  % Inhibition @ 10 μM E6C51S/E6AP             %              11
13  CCCCc1nc(N2CCN(C(=O)CCl)CC2)c2c3c(sc2n1)CCCC3  % Inhibition @ 10 μM E6C51S/E6AP             %              12
14  O=C(CCl)N1CCN(c2nc(Cc3ccccc3)nc3sc4c(c23)CCCC4)CC1  % Inhibition @ 10 μM E6C51S/E6AP             %              41
15  C=CC(=O)N1CCN(c2nc(Cc3ccccc3)nc3sc4c(c23)CCCC4)CC1  % Inhibition @ 10 μM E6C51S/E6AP             %              12
16  C=CC(=O)N1CCN(c2nc(-c3ccccc3)nc3sc4c(c23)CCCC4)CC1  % Inhibition @ 10 μM E6C51S/E6AP             %               0
17  C=CC(=O)N1CCN(c2nc(N(C)Cc3ccccc3)nc3sc4c(c23)CCCC4)CC1  % Inhibition @ 10 μM E6C51S/E6AP             %               0
18  CC1CN(C(=O)CN2CCc3sccc3C2c2cccc(F)c2)CCN1C(=O)CCl (centres unmarked)  % Inhibition @ 10 μM E6C51S/E6AP             %              12
19  C=CC(=O)N1CCN(c2nc(CCc3ccccc3F)nc3sc4c(c23)CCCC4)CC1  % Inhibition @ 10 μM E6C51S/E6AP             %              16
20  Cc1ccccc1C1c2ccsc2CCN1CC(=O)N1CCN(C(=O)CCl)C(C)C1 (centres unmarked)  % Inhibition @ 10 μM E6C51S/E6AP             %              12
21  O=C(CCl)N1CCCN(C(=O)CN2CCc3sccc3C2c2cccc(F)c2)CC1 (centres unmarked)  % Inhibition @ 10 μM E6C51S/E6AP             %               9
22  C=CC(=O)N1CCN(c2nc(CCc3cccc(OC)c3)nc3sc4c(c23)CCCC4)CC1  % Inhibition @ 10 μM E6C51S/E6AP             %              19
23  C=CC(=O)N1CCN(c2nc(N(C)Cc3ccc(F)cc3)nc3sc4c(c23)CCCC4)CC1  % Inhibition @ 10 μM E6C51S/E6AP             %               0
24  Cc1sc2nc(CCc3ccccc3)nc(N3CCN(C(=O)CCl)CC3)c2c1C  % Inhibition @ 10 μM E6C51S/E6AP             %              19
25  C=CC(=O)N1CCN(c2nc(N(C)Cc3ccccc3F)nc3sc4c(c23)CCCC4)CC1  % Inhibition @ 10 μM E6C51S/E6AP             %               0
26  Cc1sc2nc(C3CC3)nc(N3CCN(C(=O)CCl)CC3)c2c1C  % Inhibition @ 10 μM E6C51S/E6AP             %              57
